For each record, write down the corresponding MIC.
tested on: Haemophilus parasuis; assay: Antimicrobial activity against Haemophilus parasuis BB 1022; type: functional; details: Glaesserella parasuis

-- ask Give a short answer stating reported MIC for "CC1(C)S[C@@H]2[C@H](NC(=O)[C@H](N)c3ccc(O)cc3)C(=O)N2[C@H]1C(=O)O" .
-- reply > 256 µg/mL

-- ask Give a short answer stating reported MIC for "Cc1onc(-c2ccccc2)c1C(=O)N[C@@H]1C(=O)N2[C@@H]1SC(C)(C)[C@@H]2C(=O)O" .
-- reply ≤ 0.25 µg/mL

-- ask Give a short answer stating reported MIC for N[C@@H](C(=O)N[C@@H]1C(=O)N2C(C(=O)O)=C(Cl)CS[C@H]12)c1ccccc1 [CEFACLOR ANHYDROUS] .
-- reply > 16 µg/mL

-- ask Give a short answer stating reported MIC for "CO/N=C(\C(=O)N[C@@H]1C(=O)N2C(C(=O)O)=C(COC(C)=O)CS[C@H]12)c1csc(N)n1" .
-- reply 0.06 µg/mL
